These entries and their values trace back to ChEMBL document CHEMBL1201862.

test system: CCRF-CEM; assay: NCI tumour cell line growth inhibition, 48 h
Calls of active or inactive are those of the source. Cut-off read from the data, not from the text of the source: active = GI50 up to about 1.1 µM and inactive = higher.
Your response should consist of one outcome taken from active, inactive

# example entries with known answers
compound	qualitative label
O=C(CSc1nc2ccccc2c(=O)n1-c1ccccc1)N/N=C1\C(=O)Nc2ccc(F)cc21	inactive
N#Cc1nc(CCC(C(=O)O)N2C(=O)c3ccccc3C2=O)oc1N (configuration not stated)	inactive

--- query ---
Called result for "O=[N+]([O-])c1ccc(-n2nc3ccc4c(no[n+]4[O-])c3[n+]2[O-])c([N+](=O)[O-])c1"
active

====

tested on: SNB-75; assay: NCI tumour cell line growth inhibition, 48 h
Calls of active or inactive are those of the source. Cut-off read from the data, not from the text of the source: active = GI50 up to about 1.1 µM and inactive = higher.
Measured GI50 accompanies every entry in the list below.

Here are 4 compounds together with their reported answers.
> print(dat)
                                   compound  reported.property             reported
1  CC(C)CNC(=O)c1c(NC(=O)c2ccccc2)sc2[nH]c(=O)n(-c3ccccc3)c(=O)c12               GI50   17.8 µM (inactive)
2   N#C/C(C(=O)Nc1ccc(Cl)cc1)=C(/N)N1CCCCC1               GI50   24.7 µM (inactive)
3  CC(=O)OCC1OC(n2c(N)c(C#N)c(-c3ccccc3)c(C#N)c2=S)C(OC(C)=O)C(OC(C)=O)C1OC(C)=O (stereo not given)               GI50   7.33 µM (inactive)
4        O=c1[nH]c(=O)c2c3n(cc2[nH]1)CCCCC3               GI50  > 100 µM (inactive)

Which measured GI50 value corresponds to "CCOC(=O)c1nc2cc(C(F)(F)F)ccc2nc1Nc1cc(OC)c(OC)c(OC)c1" ?
> 100 µM (inactive)

====

Measured GI50 accompanies every entry in the list below.
system: SF-539; assay: NCI tumour cell line growth inhibition, 48 h
Calls of active or inactive are those of the source. Rule as the data show it: active = GI50 up to about 1.1 µM and inactive = higher.

Here are 5 compounds together with their reported answers.
> print(dat)
                                   compound             reported
1                   Oc1ccc(O)c(Cc2ccccc2)c1   10.7 µM (inactive)
2         Cc1ccnc2nc(-c3ccc(Cl)cc3)cc(O)c12   5.74 µM (inactive)
3                     N#Cc1cc(C#N)c(Cl)nc1N   > 10 µM (inactive)
4  CSc1nc2c(nc(N)n2C2OC(CO)C(O)C(O)C2O)c(=O)[nH]1 (configuration not stated)  > 100 µM (inactive)
5  COC1=C(OC)C(=O)C(Cc2c(C)nc3sccn23)=C(C)C1=O   16.5 µM (inactive)

Query GI50 on SF-539 for "S=C1N=C(Cl)/C(=C\c2ccco2)N1"
> 100 µM (inactive)

Query GI50 on SF-539 for O=C1N(c2ccccc2)C2(O)C(=O)c3ccccc3C2(O)N1c1ccccc1 (configuration not stated)
> 100 µM (inactive)

====

system: RXF 393; experiment: NCI tumour cell line growth inhibition, 48 h
Active and inactive are the calls of the source. Cut-off read from the data, not from the text of the source: active = GI50 up to about 1.1 µM and inactive = higher.
Measured GI50 accompanies every entry in the list below.

Here are 3 compounds together with their reported answers.
> print(dat)
                                   compound              reported
1  CCOC(=O)NN(C(=O)OCC)C(C(=O)c1ccccc1)N(NC(=O)OCC)C(=O)OCC   > 100 µM (inactive)
2  O=S(=O)(c1cccc(C(F)(F)F)c1)N1c2ccccc2-n2cccc2C1c1cccnc1 (stereo not given)  > 38.7 µM (inactive)
3  CCOC(=O)C(C(C)=O)C1CC=CC1 (stereo not given)   > 100 µM (inactive)

Please examine the following record next.
Which measured GI50 value corresponds to O=[N+]([O-])c1cc(C2SCc3nc4ccccc4n32)ccc1Cl (stereo not given) ?
25.3 µM (inactive)
